assay text: Equilibrium solubility assessment in biorelevant media
Assay type: physicochemical
experimental setup: PBS (phosphate buffered saline), aqueous buffer, thermodynamic from solid, Phosphate buffered saline, room temperature, read-out: PBS solubility
Here, each record is paired with measured solubility at 4 h data.

> print(dat)
                                   compound  attribute.measured  endpoint.value
1  Cc1[nH]c2ccccc2c1C(=O)C(C)Sc1nnc(-c2ccccc2Br)[nH]1 (centres unmarked) [drawing 25]   solubility at 4 h     < 0.1 µg/mL

Here's the next entry for you.
Query: Can you share its solubility at 4 h? I mean this compound: C[C@@H](Sc1nc(-c2c(Cl)cncc2Cl)n[nH]1)C(=O)c1c[nH]c2ccccc12 [drawing 27]
Response: 169 to 289 µg/mL

----------
assay text: Equilibrium solubility assessment in biorelevant media
Assay type: physicochemical
experimental setup: SGF (simulated gastric fluid), thermodynamic from solid, Simulated gastric fluid, room temperature, read-out: SGF solubility
attribute measured: solubility at 4 h

> print(dat)
                                   compound  endpoint.value
1  C[C@@H](Sc1nc(-c2c(Cl)cncc2Cl)n[nH]1)C(=O)c1c[nH]c2ccccc12 [drawing 27]  15 to 76 µg/mL

Note: attention shifts to another entry.
Query: # query: solubility at 4 h of entry Cc1[nH]c2ccccc2c1C(=O)C(C)Sc1nnc(-c2ccccc2Br)[nH]1 (centres unmarked) [drawing 25]
Response: < 0.1 µg/mL

----------
assay text: Equilibrium solubility assessment in biorelevant media
Type: physicochemical
experimental setup: FeSSIF (fed state simulated intestinal fluid), fessif, thermodynamic from solid, Fed state simulated intestinal fluid, room temperature, read-out: FeSSIF solubility
attribute measured: solubility at 4 h (µg/mL)
Express it in µg/mL; write the number only.

Query: # input compound: Cc1[nH]c2ccccc2c1C(=O)C(C)Sc1nnc(-c2ccccc2Br)[nH]1 (centres unmarked) [drawing 25] ; wanted: its solubility at 4 h
Response: 181

All figures here come from patent US20170368034A1.
